- Test system: HIV-IIIb
- experimental_details: Test A: Antiviral Assay in MT4 Cells
- Type: cell-based, HIV-1
- stated_conditions: Human immunodeficiency virus 1, MT4, 120 h; percent inhibition of virus-induced cell killing at 6 μM drug concentration, from the dose response curve; MT-4 cells infected with HIV-IIIb, 5 days; read-out: % inhibition at 6 μM
Reported inhibition at 6 µM values are given for each entry in this list.
Expressed in %, but write only the number.

Known results for molecules:
1. Cn1cnc(C(Cc2cc(F)cc(F)c2)NC(=O)Cc2c[nH]c3ccc(C(F)(F)F)cc23)c1-c1ccc(Cl)cc1 (stereo not shown) [Compound 32]; 0
2. O=C(Cc1c[nH]c2ccc(F)cc12)NC(Cc1cc(F)cc(F)c1)c1cnc(-c2ccc(Cl)cc2)o1 (stereo not shown) [Compound 19F]; 0
3. Cc1nc(-c2ccccc2)c([C@H](Cc2ccccc2)NC(=O)Cn2nc(C(F)(F)F)c3c2CCCC3)s1 [Compound 16]; 0

molecule O=C(Cc1c[nH]c2ccc(O)nc12)NC(Cc1cc(F)cc(F)c1)c1cnc(-c2ccc(Cl)cc2)o1 (stereo not shown) [Compound 22] , inhibition at 6 µM observed: 1

Looking up O=C(Cc1c[nH]c2ccc(O)cc12)NC(Cc1ccccc1)c1cnnn1-c1ccccc1 (stereo not shown) [Compound 12] , I see its inhibition at 6 µM listed as 4

# molecule O=C(Cc1c[nH]c2ccc(O)nc12)NC(Cc1cc(F)cc(F)c1)c1ncoc1-c1ccc(Cl)cc1 (stereo not shown) [Compound 38] ; its inhibition at 6 µM = 0

Given item O=C(Cn1nc(C(F)(F)F)c2c1CCCC2)N[C@@H](Cc1cc(F)cc(F)c1)c1nocc1-c1ccc(Cl)cc1 [Compound 27] , the value recorded as its inhibition at 6 µM is 28

---

- Test system: HIV-IIIb
- experimental_details: Test A: Antiviral Assay in MT4 Cells
- Format: cell-based, HIV-1
- stated_conditions: Human immunodeficiency virus 1, MT4, 120 h; percent inhibition of virus-induced cell killing at 6 μM drug concentration, from the dose response curve; MT-4 cells infected with HIV-IIIb, 5 days; read-out: % inhibition at 6 μM
result_type: inhibition at 6 µM (%)
The response must be a number in % with no trailing unit.

Example compounds with recorded inhibition at 6 µM:
1. Cc1nnc(C(Cc2ccccc2)NC(=O)Cc2c[nH]c3ccc(O)cc23)n1-c1ccccc1 (stereo not shown) [Compound 10G]; 51
2. O=C(Cc1c[nH]c2ccc(F)cc12)NC(Cc1cc(F)cc(F)c1)c1ncoc1-c1ccc(Cl)cc1 (stereo not shown); 0
3. O=C(Cc1c[nH]c2ccc(O)cc12)NC(Cc1cc(F)cc(F)c1)c1cnc(-c2ccc(Cl)cc2)o1 (stereo not shown); 5

For the next question, use this compound.
// inhibition at 6 µM value for Cc1nc(-c2ccccc2)c(C(Cc2ccccc2)NC(=O)Cc2c[nH]c3ccc(O)cc23)s1 (stereo not shown) [Compound 15C] : 0

---

- System: HIV-IIIb
- experimental_details: Test A: Antiviral Assay in MT4 Cells
- Assay type: cell-based, HIV-1
- stated_conditions: Human immunodeficiency virus 1, IIIB, MT4, 120 h, read-out: % inhibition at 6 μM
Measured inhibition at 6 µM values are reported for all entries that follow.
Reply numerically in %, unit not repeated.

Consider COc1ccc(-n2ccnc2[C@H](Cc2cc(F)cc(F)c2)NC(=O)Cn2nc(C(F)(F)F)c3c2CCCC3)cc1 [Compound 5F] . Its measured inhibition at 6 µM is 79

Query O=C(Cn1nc(C(F)(F)F)c2c1CCCC2)N[C@@H](Cc1ccccc1)c1nccn1-c1ccccc1 [Compound 1E] yields inhibition at 6 µM of 83

For record Cn1cnc(C(Cc2cc(F)cc(F)c2)NC(=O)Cc2c[nH]c3ccc(O)cc23)c1-c1ccc(Cl)cc1 (stereo not shown) [Compound 31] the listed inhibition at 6 µM is 75

Summary for this compound, O=C(Cc1c[nH]c2ccc(O)cc12)N[C@@H](Cc1cc(F)cc(F)c1)c1nocc1-c1ccc(Cl)cc1 [Compound 26] : inhibition at 6 µM is 106

Entry COc1ccc(-n2ccnc2[C@@H](Cc2cc(F)cc(F)c2)NC(=O)Cn2nc(C(F)(F)F)c3c2CCCC3)cc1 [Compound 6B] — recorded inhibition at 6 µM = 4

Value of measured inhibition at 6 µM for the entry Cc1ccccc1-c1scnc1C(Cc1cc(F)cc(F)c1)NC(=O)Cc1c[nH]c2ccc(O)cc12 (stereo not shown) [Compound 13E] : 93

Noted for O=C(Cn1nc(C(F)(F)F)c2c1CCCC2)NC(Cc1cc(F)cc(F)c1)c1cnc(-c2ccc(Cl)cc2)o1 (stereo not shown) [Compound 20] : its inhibition at 6 µM reads 1

---

- experimental_details: Test B: Cytotoxicity assay
- Format: cell-based
- stated_conditions: human, uninfected MT-4 cells, same protocol as Test A, CellTiter-Glo
result_type: CC50 at 5 days (µM)
State just the number; it will be interpreted in µM.

See these solved cases before continuing.
1. Cn1cnc(C(Cc2cc(F)cc(F)c2)NC(=O)Cc2c[nH]c3ccc(F)cc23)c1-c1ccc(Cl)cc1 (stereo not shown) [Compound 29G]; 10.8
2. COc1ccc(-n2ccnc2[C@@H](Cc2cc(F)cc(F)c2)NC(=O)Cn2nc(C(F)(F)F)c3c2CCCC3)cc1; 12
3. O=C(Cc1c[nH]c2ccc(O)cc12)NC(Cc1cc(F)cc(F)c1)c1cnc(-c2ccc(Cl)cc2)o1 (stereo not shown); 13.6

For this compound ( Cn1cnc(C(Cc2cc(F)cc(F)c2)NC(=O)Cn2nc(C(F)(F)F)c3c2CCCC3)c1-c1ccc(Cl)cc1 (stereo not shown) ), measured CC50 at 5 days is 11

CC50 at 5 days in this record for O=C(Cn1nc(C(F)(F)F)c2c1CCCC2)NC(Cc1cc(F)cc(F)c1)c1cnc(-c2ccc(Cl)cc2)o1 (stereo not shown) : 12.2

GET /value?item= COc1ccc(-n2ccnc2[C@H](Cc2cc(F)cc(F)c2)NC(=O)Cn2nc(C(F)(F)F)c3c2CCCC3)cc1 &field=CC50 at 5 days returns 13.5

---

- System: HIV-IIIb
- experimental_details: Test A: Antiviral Assay in MT4 Cells
- Assay type: cell-based, HIV-1
- stated_conditions: Human immunodeficiency virus 1, MT4, 120 h; percent inhibition of virus-induced cell killing at 6 μM drug concentration, from the dose response curve; MT-4 cells infected with HIV-IIIb, 5 days; read-out: % inhibition at 6 μM
result_type: inhibition at 6 µM (%)
Your answer should be a plain number; it is taken to be in %.

Example entries begin here.
1) Cc1nnc(C(Cc2ccccc2)NC(=O)Cn2nc(C(F)(F)F)c3c2CCCC3)n1-c1ccccc1 (stereo not shown) [Compound 11]; 76
2) CC(C)CCn1ccnc1[C@H](Cc1ccccc1)NC(=O)Cn1nc(C(F)(F)F)c2c1CCCC2 [Compound 2]; 6
3) Cn1cnc(C(Cc2cc(F)cc(F)c2)NC(=O)Cn2nc(C(F)(F)F)c3c2CCCC3)c1-c1ccc(Cl)cc1 (stereo not shown) [Compound 30]; 69

Next compound, inhibition at 6 µM to be filled in.
// returns inhibition at 6 µM for Cc1ccccc1-c1scnc1C(Cc1cc(F)cc(F)c1)NC(=O)Cn1nc(C(F)(F)F)c2c1CCCC2 (stereo not shown) [Compound 14] with HIV-IIIb; value = 60

---

- System: HIV-IIIb
- experimental_details: Test A: Antiviral Assay in MT4 Cells
- Assay type: cell-based, HIV-1
- stated_conditions: Human immunodeficiency virus 1, IIIB, MT4, 120 h, read-out: % inhibition at 6 μM
result_type: inhibition at 6 µM (%)
The reply should be a number in %, with the unit left off.

Example cases with answers are listed next.
1. O=C(Cc1c[nH]c2ccc(F)cc12)N[C@@H](Cc1ccccc1)c1nc(-c2ccccc2)no1 [Compound 18B]; 4
2. COc1ccc(-n2ccnc2[C@H](Cc2cc(F)cc(F)c2)NC(=O)Cc2c[nH]c3ccc(O)cc23)cc1 [Compound 7]; 121
3. COc1ccc(-n2ccnc2[C@@H](Cc2cc(F)cc(F)c2)NC(=O)Cc2c[nH]c3ccc(O)cc23)cc1 [Compound 8]; 6
4. Cn1cnc(C(Cc2cc(F)cc(F)c2)NC(=O)Cc2c[nH]c3ccc(F)cc23)c1-c1ccc(Cl)cc1 (stereo not shown) [Compound 29G]; 44

inhibition at 6 µM recorded for this compound, O=C(Cn1nc(C(F)(F)F)c2c1CCCC2)NC(Cc1ccccc1)c1cnnn1-c1ccccc1 (stereo not shown) [Compound 9E] , is 0

Reported inhibition at 6 µM ( COc1ccccc1Cn1ccnc1[C@H](Cc1ccccc1)NC(=O)Cc1c[nH]c2ccc(O)cc12 [Compound 3C] ) = 19

Measured inhibition at 6 µM of O=C(Cc1c[nH]c2ccc(O)cc12)N[C@H](Cc1cc(F)cc(F)c1)c1nocc1-c1ccc(Cl)cc1 [Compound 28B] : 3

---

- experimental_details: Test B: Cytotoxicity assay
- Type: cell-based
- stated_conditions: human, uninfected MT-4 cells, same protocol as Test A, CellTiter-Glo
CC50 at 5 days overview
Use µM as the unit, but write only the number.

1) O=C(Cc1c[nH]c2ccc(F)cc12)NC(Cc1cc(F)cc(F)c1)c1ncoc1-c1ccc(Cl)cc1 (stereo not shown); 10.2
2) O=C(Cc1c[nH]c2ccc(F)cc12)NC(Cc1cc(F)cc(F)c1)c1cnc(-c2ccc(Cl)cc2)o1 (stereo not shown) [Compound 19F]; 9.14
3) O=C(Cn1nc(C(F)(F)F)c2c1CCCC2)NC(Cc1ccccc1)c1cnnn1-c1ccccc1 (stereo not shown); 13.2

get_value(item= CC(C)CCn1ccnc1[C@H](Cc1ccccc1)NC(=O)Cn1nc(C(F)(F)F)c2c1CCCC2 , readout=CC50 at 5 days) returns 27.8

Data provenance: patent US9789089B2
